Ref: patent US20250237662A1

- Assayed system: humanized development candidate monoclonal antibody IgG4 (hIgG4)
- Assay info: Gyrolab, mAb as capture, hIgG4 1.6 ng/ml, against the blank
Readout name: S/B
// return a plain number; no unit text

Reference set, count: 3
S/B recorded for this binder, rabbit anti-human IgG monoclonal antibody clone 11G5 (antibody, V domains shown) VH: QSLEESGGDLVKPGASLTLTCTASGFSFSSSYYMCWVRQAPGKRLEWIACIYGGGLSNTYYAGWAKGRFTISKTSSTTVTLQMTSLTAADTATYFCARDATSGDYLNLWGPGTLVTVSS VL: AVVMTQTASPVSGAVGGTVTINCQASQSISASALSWYQQKPGQPPKLLIYAASTLESGVPSRFKGSGSGTQFTLTISGVQCDDAATYYCAYDGYRLSSADNIFGGGTEVVVKG , is 1.3

// rabbit anti-human IgG monoclonal antibody clone 2C5 (antibody, V domains shown) VH: QEQLVESGGDLVKPGASLTLTCTASGFSFSSGYYMCWVRQAPGKGLEWIACIYGGALTNTYYATWAKGRFTISKTSSTTVTLQMTSLTAADTATYFCARDLGAAGDAYNLWGPGTLVTVSS VL: ASDMTQTPASVSAAVGGTVTIKCQASESIYSGLAWYQQKPGQPPKLLIFDASDLASGVPSRFKGSRSETEYTLTISDLECADAATYYCQCTDRNSITSYAFGGGTEVVVKG : S/B value = 1.4

Reported S/B of rabbit anti-human IgG monoclonal antibody clone 16F5 (antibody, V domains shown) VH: QQQLEESGGGLVKPGGTLTLTCKASGIDFSNYYYMCWVRQAPGKGLELIACIYTGSSGSTWYATWAKGRFTISKTSSTTVTLQMTSLTAADTATYFCARDRDVGSLYDSLDLWGQGTLVTVSP VL: AYDMTQTPASVEAAVGGTVTINCQASQSINNWLSWYQQKPGQRPKLLIYQASTLASGVSSRFKGSGSGTHFTLTISDLECADAATYYCQQGWSIDDIDNAFGGGTEVVVKG : 1.8

Let us examine a further case.
For reference, reported S/B for rabbit anti-human IgG monoclonal antibody clone 9E6 (antibody, V domains shown) VH: QSLEESGGDLVKPGASLTLTCKASGFDFSSSYYMCWVRQAPGRLEWIACIYGGGLSNTYYAGWAKGRFTISKTSSTTVTLQMTSLTVADTATYFCARDAGTSGDYLNLWGPGTLVTVSS VL: AVVMTQTASPVSGAVGGTVTINCQASQSISSSYLSWYQQKPGQPPKLLIYGASTLASGVPSRFKGSGSGTQFTLTISGVQCDDAATYYCAYDAYRLSSPDNIFGGGTEVVVKG stands at 1.4
